experimental-system: EPHB1 (UniProt P54762)
Sequence (P54762 whole entry, looked up): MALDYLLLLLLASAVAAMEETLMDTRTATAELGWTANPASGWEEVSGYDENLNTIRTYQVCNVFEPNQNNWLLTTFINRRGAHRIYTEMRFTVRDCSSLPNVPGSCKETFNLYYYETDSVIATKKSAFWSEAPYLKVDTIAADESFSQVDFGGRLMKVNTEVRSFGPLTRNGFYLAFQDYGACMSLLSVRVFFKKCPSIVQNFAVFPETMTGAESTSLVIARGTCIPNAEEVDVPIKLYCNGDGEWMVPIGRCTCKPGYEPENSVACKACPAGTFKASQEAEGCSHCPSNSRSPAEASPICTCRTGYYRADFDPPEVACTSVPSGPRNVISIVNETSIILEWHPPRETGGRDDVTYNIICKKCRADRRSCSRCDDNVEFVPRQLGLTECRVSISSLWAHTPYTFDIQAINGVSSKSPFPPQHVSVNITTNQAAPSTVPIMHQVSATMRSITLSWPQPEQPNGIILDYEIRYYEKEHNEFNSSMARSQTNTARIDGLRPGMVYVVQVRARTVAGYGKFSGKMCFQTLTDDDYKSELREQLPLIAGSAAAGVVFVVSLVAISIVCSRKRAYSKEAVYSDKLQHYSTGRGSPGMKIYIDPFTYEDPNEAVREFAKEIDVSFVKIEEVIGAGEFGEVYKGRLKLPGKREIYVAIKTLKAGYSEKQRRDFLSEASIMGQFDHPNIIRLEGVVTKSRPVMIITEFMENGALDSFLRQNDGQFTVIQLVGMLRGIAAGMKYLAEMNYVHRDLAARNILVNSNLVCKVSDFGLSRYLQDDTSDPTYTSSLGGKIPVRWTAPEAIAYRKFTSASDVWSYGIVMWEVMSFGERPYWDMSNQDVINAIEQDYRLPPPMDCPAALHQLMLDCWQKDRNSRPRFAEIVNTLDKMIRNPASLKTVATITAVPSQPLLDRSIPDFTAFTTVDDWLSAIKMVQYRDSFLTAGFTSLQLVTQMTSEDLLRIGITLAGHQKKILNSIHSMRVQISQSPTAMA
assay-remarks: phosphorylation enrichment, bacterial display (enrichment ratio); higher = better substrate or ligand; peptides without Tyr show the background;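 also: 11-residue human phosphosite peptides and single-mutation variants displayed on the E. coli surface, counted by deep sequencing, each peptide's frequency after selection divided by its frequency in the unselected input library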;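 also: frequency after pTyr selection over input frequency; kinase dosed for 20-30% of maximal phosphorylation in three min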
Class true (1): phosphorylation enrichment at least 0.6. Class false (0): phosphorylation enrichment below 0.6.

These recorded examples may help you get a feel for the data.
FSTDFYRVGGH [NTRK2_Y707_YF]; true (1)
SWDKRYCEAGC [ITGA2B_Y197_F202C]; false (0)
LSQQVYRVNLS [FAT4_Y480_F475L]; false (0)

Asked: Would you say DVVKDYAFVHM [RBM14_Y114] shows phosphorylation enrichment at minimum 0.6?
Given back: true (1)

----------
Recorded measurements of phosphorylation enrichment, one per entry
experimental-system: Hck (UniProt P08631)
Sequence (P08631 whole entry, looked up): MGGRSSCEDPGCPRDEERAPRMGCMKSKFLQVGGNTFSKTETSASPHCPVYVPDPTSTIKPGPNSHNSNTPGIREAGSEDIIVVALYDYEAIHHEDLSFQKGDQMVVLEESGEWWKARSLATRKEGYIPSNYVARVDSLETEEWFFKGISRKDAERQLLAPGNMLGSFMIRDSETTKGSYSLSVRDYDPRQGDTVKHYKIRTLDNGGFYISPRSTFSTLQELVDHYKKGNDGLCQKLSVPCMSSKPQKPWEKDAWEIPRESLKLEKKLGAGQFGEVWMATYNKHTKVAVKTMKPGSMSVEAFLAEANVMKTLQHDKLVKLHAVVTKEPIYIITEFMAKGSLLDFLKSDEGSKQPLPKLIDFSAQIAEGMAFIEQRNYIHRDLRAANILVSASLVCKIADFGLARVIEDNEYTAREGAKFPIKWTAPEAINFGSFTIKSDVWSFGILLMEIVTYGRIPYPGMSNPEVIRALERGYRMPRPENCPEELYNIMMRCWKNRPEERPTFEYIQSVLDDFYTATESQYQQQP
assay-remarks: phosphorylation enrichment, bacterial display (enrichment ratio); higher = better substrate or ligand; peptides without Tyr show the background
The answer should be written as a number, with no unit following it.

Below: 5 sequences and their reported phosphorylation enrichment.
SAQHHYESLQT [BIN1_Y157_R154Q]; 0.513
ATPSRYMTFLH [DYNC2H1_Y2872]; 0.487
HPWPQYTTRAP [FNDC1_Y1281]; 0.572
SVMVPYEPPEV [TP53_Y220_V217M]; 0.496
SVVVPYEPLEV [TP53_Y220_P223L]; 0.533

Asked: Can you look up the measured phosphorylation enrichment of KGNMFYENSFA [EGFR_Y113_R108K_YF] for me?
Given back: 0.449

Asked: Repeat with TVMGLYQKSSL [MYH7_Y609_V606M]
Given back: 0.573

Values compiled from the supplement of paper PMC10065799.
